The measurements presented in this section are drawn from paper PMC9271048.

# Test system: ShHTLs (10 HTL proteins in S. hermonthica)
# measurement_description: YLG-based competition assay on HTL proteins of S. hermonthica
# Format: biochemical, Striga hermonthica
# cond: ShHTL8; YLG competition; Supplementary Fig. 27; read-out: IC50, replicate 1
# Text: In P. aegyptiaca, 5 KAI2s have been proposed as the SL receptors for the regulation of seed germination. […] The high sequence similarity may explain the consistency of these compounds in inducing germination in both S. hermonthica and P. aegyptiaca. The excitation and emission wavelengths of YLG are 480 and 520 nm, respectively. We used a fluorescence spectrophotometer (CARY Eclipse) to detect the fluorescence intensity change of YLG during the enzymatic hydrolysis assay process. […]
pIC50: −log10 of the molar value.
Classify as follows. Reported pIC50 greater than or equal to 5: fulfilled. Reported pIC50 below: not fulfilled.

compound | category_label
CC1=C[C@H](O/C=C2/C(=O)O[C@@H]3c4ccccc4C[C@H]23)OC1=O (racemic) [rac-GR24, reference compound] | fulfilled
CC1=CC(CC(=O)N2CCN(C(=O)COc3ccc(Br)cc3C)CC2)OC1=O (stereo not shown) | not fulfilled
CC1=CC(OC(=O)N2CCN(C(=O)COc3ccc(Br)cc3C)CC2)N(C)C1=O (stereo not shown) | not fulfilled
CC1=CC(OC(=O)N2CCN(C(=O)COc3ccc(Br)cc3C)CC2)CC1=O (stereo not shown) | not fulfilled
CC1=CC(OC(=O)N2CCN(C(=O)COc3ccc(Br)cc3C)CC2)OC1=O (stereo not shown) | not fulfilled
CC1=C[C@@H](OC(=O)N2CCN(C(=O)COc3ccc(Br)cc3C)CC2)OC1=O [(R)-4a] | not fulfilled

---

# system_tested: UniProt A0A0M3PNA2
# measurement_description: ShHTL7-hydrolysis reaction analysis (HPLC)
# Assay type: biochemical
# cond: 10 μM compound, 30 °C, 30 min; Supplementary Figs. 11, 20a, 24a
quantity: relative percentage of hydrolysis by ShHTL7, source data average

molecule | observed_measurement
CC1=CC(OC(=O)N2CCN(C(=O)COc3ccc(Br)cc3C)CC2)CC1=O (stereo not drawn) | 10.7551%
CC1=CC(CC(=O)N2CCN(C(=O)COc3ccc(Br)cc3C)CC2)OC1=O (stereo not drawn) | -2.582%
CC1=C[C@@H](OC(=O)N2CCN(C(=O)COc3ccc(Br)cc3C)CC2)OC1=O [(R)-4a] | 3.081%

---

# system_tested: ShHTL7 (Striga hermonthica)
# Sequence (A0A0M3PNA2 entry or part of it): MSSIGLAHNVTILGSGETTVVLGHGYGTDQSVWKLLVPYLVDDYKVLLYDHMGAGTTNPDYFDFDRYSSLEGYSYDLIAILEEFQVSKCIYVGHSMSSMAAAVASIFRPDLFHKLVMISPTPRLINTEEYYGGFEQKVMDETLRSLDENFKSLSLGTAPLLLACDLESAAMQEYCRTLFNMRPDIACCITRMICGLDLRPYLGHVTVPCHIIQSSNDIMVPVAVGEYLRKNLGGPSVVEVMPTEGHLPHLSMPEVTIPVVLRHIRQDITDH
# measurement_description: Competitive inhibition of ShHTL7 with Yoshimulactone Green (YLG) as substrate
# Assay type: biochemical
# cond: ShHTL7; YLG competition; Supplementary Fig. 27; read-out: IC50, replicate 3
IC50: recorded values

compound | scale_unit | IC50
CC1=C[C@@H](OC(=O)N2CCN(C(=O)COc3ccc(Br)cc3C)CC2)OC1=O [(R)-4a] | nM | 33700
CC1=CC(OC(=O)N2CCN(C(=O)COc3ccc(Br)cc3C)CC2)N(C)C1=O (stereo not shown) | nM | 4750
CC1=CC(CC(=O)N2CCN(C(=O)COc3ccc(Br)cc3C)CC2)OC1=O (stereo not shown) | nM | 4350
CC1=CC(OC(=O)N2CCN(C(=O)COc3ccc(Br)cc3C)CC2)OC1=O (stereo not shown) | nM | 1320
CC1=CC(OC(=O)N2CCN(C(=O)COc3ccc(Br)cc3C)CC2)CC1=O (stereo not shown) | nM | 1970
CC1=C[C@H](OC(=O)N2CCN(C(=O)COc3ccc(Br)cc3C)CC2)OC1=O [(S)-4a] | nM | 921
CC1=C[C@H](O/C=C2/C(=O)O[C@@H]3c4ccccc4C[C@H]23)OC1=O (racemic) [rac-GR24, reference compound] | nM | 614
